// Kd lookup, one value per entry
# target-or-test-system: T1, human LIGHT (TNFSF14), full length, membrane-bound (214E allele) (human, UniProt O43557 1-240)
# T1 construct: also called membrane LIGHT; human membrane LIGHT
# T1 sequence (O43557 whole entry K214E): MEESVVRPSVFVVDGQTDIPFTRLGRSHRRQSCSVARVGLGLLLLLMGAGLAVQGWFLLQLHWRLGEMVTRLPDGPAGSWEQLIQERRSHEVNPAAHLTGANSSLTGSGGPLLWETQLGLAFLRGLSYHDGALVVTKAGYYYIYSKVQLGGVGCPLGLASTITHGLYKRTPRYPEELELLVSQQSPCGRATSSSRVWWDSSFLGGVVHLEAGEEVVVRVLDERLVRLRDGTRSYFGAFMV
# assay-summary: membrane LIGHT on cells, as for Table 9
// note: answer is a bare numeric in pM

What does the record list as Kd for 3B04 (antibody, human IgG4, V domains shown, chimeric: mouse variable domains on human IgG4 HC (S-to-P and L-to-E at 248) and human CL; also called Parental 3B04; 3B04 chimeric) VH: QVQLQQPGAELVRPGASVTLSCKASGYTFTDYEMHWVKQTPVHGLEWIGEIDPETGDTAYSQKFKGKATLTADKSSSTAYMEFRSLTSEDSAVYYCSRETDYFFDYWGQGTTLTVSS VL: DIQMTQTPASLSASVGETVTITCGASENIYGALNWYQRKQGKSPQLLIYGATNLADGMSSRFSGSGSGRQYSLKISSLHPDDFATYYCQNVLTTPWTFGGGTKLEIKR ?
210

Which Kd value is on record for 3D12 (antibody, human IgG4, V domains shown, chimeric: mouse variable domains on human IgG4 HC (S-to-P and L-to-E at 248) and human CL; also called Parental 3D12; 3D12 chimeric) VH: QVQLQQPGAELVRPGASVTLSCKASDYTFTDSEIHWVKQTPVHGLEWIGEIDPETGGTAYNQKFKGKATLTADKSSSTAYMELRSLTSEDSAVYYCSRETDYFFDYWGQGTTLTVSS VL: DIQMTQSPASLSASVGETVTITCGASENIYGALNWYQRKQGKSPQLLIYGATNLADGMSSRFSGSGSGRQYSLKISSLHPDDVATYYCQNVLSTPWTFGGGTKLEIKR ?
190

Look at this binder and give its reported Kd. 2B11 (antibody, human IgG4, V domains shown, chimeric human IgG4 (S-to-P, L-to-E at 248), human CL; also called Parental 2B11) VH: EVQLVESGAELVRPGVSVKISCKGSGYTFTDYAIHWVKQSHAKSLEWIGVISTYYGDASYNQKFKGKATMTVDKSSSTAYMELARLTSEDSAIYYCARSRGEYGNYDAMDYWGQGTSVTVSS VL: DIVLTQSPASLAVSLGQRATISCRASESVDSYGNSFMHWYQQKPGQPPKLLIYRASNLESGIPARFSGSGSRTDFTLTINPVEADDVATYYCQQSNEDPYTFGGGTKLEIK
340
